For each of the compounds below, state its inhibition.
target: Pantothenate synthetase (Mycobacterium tuberculosis (strain ATCC 25618 / H37Rv)); assay: Coupled enzyme confirmation of inhibitors against recombinant Mtb PanC (AID 375); conditions: coupled enzyme assay; at 10 µM, stronger effect = higher value;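 note: 0% = full reaction with vehicle and 100% = no enzyme background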
Field format: number, assumed %, no unit text.

# inhibition of O=C(NCc1ccc2c(c1)OCO2)c1ccccn1 = 6

CC1=C(C(=O)NCc2ccccc2)C(c2ccccc2OCC(N)=O)NC(=O)N1 (stereo not given) has a reported inhibition of 0

Please fill in: inhibition reported for CCOC(=O)c1c(C)oc2ccc(O)c(CN(C)C)c12 = 0

inhibition reported for this compound CC1=C(C#N)C(c2ccoc2)C(C(=O)OCc2ccccc2)=C(N)S1 (stereo not given) : 5

Entry under test: COCCN(C(=O)c1csnn1)C(C(=O)NC1CCCCC1)c1cccs1 (stereo not given) . Its inhibition was 2

Per the record, O=c1c(-c2ccc(Br)cc2)coc2c(CN3CCOCC3)c(O)ccc12 has inhibition of 0

Looking up C#CCN1C(=O)C(O)(CC(=O)c2cccc(OC)c2)c2ccccc21 (stereo not given) , I found its inhibition recorded as 0

Query CC1CCN(CCCNC(=O)c2cn(C)c3ccc(S(=O)(=O)N4CCCC4)cc3c2=O)CC1 yields inhibition of 0

Kindly note the recorded inhibition for COc1ccc(C(=O)Nc2ccc(S(=O)(=O)Nc3nccnc3OC)cc2)cc1OC , which is 0

Notebook: Cn1cnc2cc(NC(=O)c3ccc(Cl)cc3)ccc21 , inhibition read as 0

Query Cn1c(=O)c2c(nc(SCCCC#N)n2Cc2ccccc2F)n(C)c1=O yields inhibition of 0

Entry O=C(c1ccc(Br)cc1)N1CCN(S(=O)(=O)c2ccccc2)CC1 ; inhibition = 0

// field: inhibition; key: O=C(O)c1ccccc1C(=O)Nc1ccccc1 ; value = 0

// inhibition lookup, compound = c1ccc(-c2noc(-c3cccnc3)n2)nc1 , result: 0

// recorded inhibition for Cc1ccn2cc(CCNC(=O)CC(C)(C)C)nc2c1 : 0

Input O=C(CSc1nc2[nH]ncc2c(=O)n1-c1ccccc1Br)NCc1ccco1 . Output inhibition: 1

get_value(item= O=C(c1ccc(Cl)cc1)C1CCN(C(=O)NC2CCCCC2)CC1 , readout=inhibition) returns 0

compound CCOC(=O)n1c(SCC(=O)N(CC)CC)nc2ccccc21 , inhibition observed: 0

// field: inhibition; key: CC(C)(C)SCCNC(=O)COc1ccccc1 ; value = 3

Memo: CCOC(=O)c1ccc(-n2c(=O)[nH]c3ccccc3c2=O)cc1 , reported inhibition: 2

---

Could you please report measured inhibition for the items listed next?
assay: growth suppression of yeast trafficking mutant, preliminary HTS, modulators of trafficking downstream of Golgi apparatus project, 1536-format plate, OD 615 nm (AID 637); settings: yeast transport mutant growth, absorbance 615 nm, 18 h; stronger effect = higher value
Give the quantity in %, number only.

Quick note, inhibition for CC1CCN2c3nc4ccccn4c(=O)c3CC3(C(=O)N(C)C(=O)N(C)C3=O)C2C1 (configuration not stated) landed at 1.64

Given item Cc1nn(Cc2ccccc2Cl)c(Cl)c1C(=O)OCC(=O)NCc1ccco1 , the value recorded as its inhibition is -0.82

Data point: COc1ccccc1-n1c(O)c(C=NCc2ccc3c(c2)OCO3)c(=O)[nH]c1=O ; inhibition = -0.48

For this compound ( [N-]=[N+]=CC(=O)OC[C@H](N)C(=O)O ), measured inhibition is 1.83

For CCCCn1c(O)c(C(C)=NCCc2ccccc2)c(=O)[nH]c1=O the compound record lists inhibition as 9.51

Field inhibition (entry COCCOC(=O)C1=C(N)Oc2c(c(=O)oc3ccccc23)C1c1ccncc1 (configuration not stated) ) reads -2.22

Measured inhibition of CCNc1ccc(P(=S)(N(C)C)N(C)C)cc1 : -4.6

Per the records, this compound ( COc1ccccc1CN1CCN(C(=O)Cc2ccccc2)CC1 ) has inhibition equal to -4.36

Per the records, this compound ( O=C1CC(N2CCC(n3c(=O)[nH]c4ccccc43)CC2)C(=O)N1c1ccc(F)cc1 (configuration not stated) ) has inhibition equal to -6.5

Quick note, inhibition for CC1=C(C(=O)OC(C)C)[C@]2(C(=O)N(CC(N)=O)c3ccccc32)C(C#N)=C(N)O1 landed at 19.5

Memo: c1ccc(C2CC3CC(c4ccco4)N2O3)cc1 (configuration not stated) , reported inhibition: -7.74

Noted for Cc1[nH]c2c(Cl)cccc2c1CCN : its inhibition reads 5.9

The recorded inhibition for COC(=NC1CCCC1)C(O)c1c[nH]c2ccccc12 (configuration not stated) is -4.44

Lab book: inhibition of CCOCC(=O)NC1CCSC1=O (configuration not stated) noted as 5.16

COC1=CC(=O)OC(/C=C/c2ccccc2)C1 (configuration not stated) has a reported inhibition of -4.5

The recorded inhibition for entry O=C(O)c1nonc1-c1nonc1C(=O)O equals 6.39

Data point: O=C(Cn1cc(C(=O)c2ccccc2)c2ccccc21)NCc1ccco1 ; inhibition = 6.51

// O=C(c1ccc2nc(-c3ccco3)c(-c3ccco3)nc2c1)N1CCC2(CC1)OCCO2 : inhibition value = 4.33

Form field inhibition, entry O=C(CN1C(=O)CN=C(c2ccccc2)c2ccccc21)NCc1ccco1 : -5

Record summary for O=C(COc1ccc2ccccc2c1)N1CCN(C2CCN(Cc3ccccc3)CC2)CC1 : reported inhibition = 1.8

Kindly note the recorded inhibition for COc1ccc(OC)c(C2=NOC(C(=O)N3CCC4(CC3)OCCO4)C2)c1 (configuration not stated) , which is 0.5

The compound listed as Cc1ccccc1-n1c(O)c(C=NCCN2CCOCC2)c(=O)[nH]c1=O shows inhibition equal to -8.41

Given item CC(C)OC(=O)c1c(N)n(CC2CCCO2)c2nc3ccccc3nc12 (configuration not stated) , the value recorded as its inhibition is -3.17

inhibition recorded for this compound, CC12CCCCC1=[N+]([O-])CN2O (configuration not stated) , is 8.71

Record Nc1ccccc1C(=O)OC1CSC1 . Reported inhibition: 1.45

What the record says about COc1ccc(N2CCN(CCCN)CC2)cc1 : inhibition is -1.27

Recorded inhibition (compound N#Cc1ccccc1Cn1cc(C(=O)C2CC2)c2ccccc21 ): -5.5

Briefly, inhibition measured for O=c1[nH]c(=O)n(Cc2ccc(F)cc2)c(O)c1C=NCCCN1CCOCC1 : -2.22

For this compound ( Cc1cc(OCC(=O)O)c2c3c(c(=O)oc2c1)CCCC3 ), measured inhibition is 7.38

The compound listed as COc1cc(C2NCc3ccccc3-n3cccc32)ccc1O (configuration not stated) shows inhibition equal to -1.27

// recorded inhibition for CCN1c2nc3c(C)cccn3c(=O)c2CC2(C(=O)N(C)C(=O)N(C)C2=O)C1C (configuration not stated) : -2.13

Value of inhibition reported for the compound O=C(C1CCCN(S(=O)(=O)c2cccc3nsnc23)C1)N1CCC2(CC1)OCCO2 (configuration not stated) is 1.33

---

What growth inhibition was measured for each of the following?
assay: S. cerevisiae growth inhibition in restrictive medium, OD615, pilot screen, restrictive growth control, yeast lifespan reduction project (AID 706); settings: OD615, 48 h, at 10 µM, stronger effect = higher value;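 note: modified DeaD lifespan yeast strain shifted to restrictive glucose medium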
Kindly answer with a numeric value in %, unit omitted.

Reported growth inhibition for CN(C)C(=O)Oc1ccc(C(=O)c2ccccc2)cc1 was 5.16

Short answer for COc1ccc(OC)c(N2C(=O)NC(=O)C(CCc3ccncc3)(CCc3ccncc3)C2=O)c1 : growth inhibition was -9.8

For reference, reported growth inhibition for O=C1CC(N2CC=C(c3ccccc3)CC2)C(=O)N1c1ccc(F)cc1 (configuration not stated) stands at -4.17

# molecule O=C(C(Cc1ccccc1)NS(=O)(=O)c1ccc(F)cc1)N1CCC2(CC1)OCCO2 (configuration not stated) ; its growth inhibition = -17.2

Value of growth inhibition reported for the molecule O=C(O)c1cc2ccccc2oc1=O is -5.03

According to the records, this molecule Cc1nc2ccccc2c(=O)n1-c1ccc(F)cc1 displays growth inhibition of 4.13

Noted for COC(=O)c1ccc(CN2CCN(Cc3ccccc3)CC2)cc1 : its growth inhibition reads -15.9

// recorded growth inhibition for O=c1cccc2n1CC1CC2CN(C(c2ccccc2)c2sc3ncnn3c2O)C1 (configuration not stated) : 3.32

// recorded growth inhibition for CC(CO)(CO)N=Cc1c(O)n(-c2cccc3ccccc23)c(=O)[nH]c1=O : -18.2

Notebook: Nc1ccccc1C(=O)c1ccccc1 , growth inhibition read as -1.46

For record c1ccc2c(CN3CCCCCCC3)c[nH]c2c1 the listed growth inhibition is 0.115

Per the record, COc1cc(CN2CC3CC(C2)c2cccc(=O)n2C3)cc(OC)c1OC (configuration not stated) has growth inhibition of -4.6

get_value(item= Cc1nc2ccc(Cl)cn2c1P(=S)(N1CCOCC1)N1CCOCC1 , readout=growth inhibition) returns 4.46

response.value for O=C1CCCC2=C1C(c1cccnc1)Nc1ccccc1N2 (configuration not stated) (field: growth inhibition) = -2.74

CN1C(=O)C(Cc2cccc3ccccc23)C(=O)N(C)C1=O has a reported growth inhibition of -4.64

Measured growth inhibition of CCOC(=O)N(CC)c1ccc(C(O)(C(=O)OCC)C(F)(F)F)cc1 (configuration not stated) : -2.65

Form field growth inhibition, entry CN(C)C(=O)Oc1ccc(OC(=O)N(C)C)cc1 : -14.3

The reported growth inhibition of the molecule COc1cc(C2SCC(=O)Nc3c2c(=O)[nH]n3C2CCCCCC2)cc(OC)c1OC (configuration not stated) was -4.26

Query Cn1c(O)c(C(=NCCN2CCCCC2)c2ccccc2Cl)c(=O)n(C)c1=O yields growth inhibition of -13.6

Reported growth inhibition for OC12CCCCC1C(c1ccccc1)NCC2 (configuration not stated) was -17.1

For this molecule ( O=C(O)C1CN2CCC1CC2 (configuration not stated) ), measured growth inhibition is 5.84

Documented growth inhibition of COc1cccc(N2C(=O)CC(=O)NC2=O)c1 : -6.37

growth inhibition reading for Cc1cc(Br)ccc1N1C(=O)CC(=O)NC1=O : 7.12

The reported value for COc1cc2c(cc1OC)C(C(=O)N1CCC3(CC1)OCCO3)C(c1ccccc1F)N(C)C2=O (configuration not stated) in terms of growth inhibition is 12

Reported growth inhibition ( CCOC(=O)c1cncn1C(C)c1ccccc1 (configuration not stated) ) = 1.2

The measured growth inhibition associated with CC1(C)CN=C(Nc2ccc(F)c(F)c2)S1 reads -4.74

The measured growth inhibition associated with CC(C)CC1C(C#N)=C(N)Oc2c1c(=O)oc1ccccc21 (configuration not stated) reads -16.4

# growth inhibition (molecule: CN1C(=O)C(Cc2cccs2)C(=O)N(C)C1=O ) is -4.64

Looking up CN1CCN(CCC(C#N)(c2ccccc2)c2ccccc2)CC1 , I found its growth inhibition recorded as -7.5

Field growth inhibition (entry CC12CCC(=O)C=C1CCC1C2CCC2(C)C(O)CCC12 (configuration not stated) ) reads 6.93

Summary for this molecule, CC12CN3CC(C)(CN(C1)C3c1ccco1)C2=O (configuration not stated) : growth inhibition is -8.04

// recorded growth inhibition for c1ccc2sc(C3CCCNC3)nc2c1 (configuration not stated) : -19.7

Please fill in: growth inhibition reported for Clc1cccc(CN2CCCCC2c2cccnc2)c1 (configuration not stated) = -2.08

// field: growth inhibition; key: CCCCCCOc1ccc(CN2CCN(CCO)CC2)cc1 ; value = 2.46

The recorded growth inhibition for entry CCC(=O)N1CC(=O)Nc2ccc(F)cc2C1c1ccccc1 (configuration not stated) equals -11.4

Short answer for O=C1OCCN1P(=O)(c1ccccc1)c1ccccc1 : growth inhibition was 2.02

Item: COc1ccc(N2C(=O)CC(N3CC=C(c4ccccc4)CC3)C2=O)cc1 (configuration not stated) | growth inhibition: -0.61
